B1: TPR 5TU (parent)
chain: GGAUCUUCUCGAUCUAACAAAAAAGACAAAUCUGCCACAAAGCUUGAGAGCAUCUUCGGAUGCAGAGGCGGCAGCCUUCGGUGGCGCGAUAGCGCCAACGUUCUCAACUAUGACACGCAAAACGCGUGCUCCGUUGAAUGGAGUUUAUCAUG

# Variants of: B1
# test_protocol: polymerase ribozyme fitness, log enrichment relative to wild type (log ratio); higher = more active; in vitro selection for triplet polymerase activity
This sample holds only a part of the variants without activity.
Listed here are variants together with their documented polymerase ribozyme fitness (log ratio).

Study these solved cases before continuing.
[
  {
    "variant_designation": "C5G A29U A64U G86U A150G",
    "observed_value": "≤ -4.2"
  },
  {
    "variant_designation": "U61A G92U",
    "observed_value": -3.41
  },
  {
    "variant_designation": "C8G U13G C116G",
    "observed_value": -3.71
  }
]

Enquiry: Any idea what its polymerase ribozyme fitness (log ratio) is? The variant is A20C A24C C51A G74C G94U A121U U135G U148C
Return: ≤ -4.2

Enquiry: Next up: `C123U`
Return: 0.225

Enquiry: Next up: A28C U78G
Return: ≤ -4.2
